Molecular target: T1, full length human DLL4 (human, UniProt Q9NR61 27-685)
T1 construct: whole, on cells; also called native DLL4 expressed in HEK293 cells
T1 sequence (Q9NR61 27-685): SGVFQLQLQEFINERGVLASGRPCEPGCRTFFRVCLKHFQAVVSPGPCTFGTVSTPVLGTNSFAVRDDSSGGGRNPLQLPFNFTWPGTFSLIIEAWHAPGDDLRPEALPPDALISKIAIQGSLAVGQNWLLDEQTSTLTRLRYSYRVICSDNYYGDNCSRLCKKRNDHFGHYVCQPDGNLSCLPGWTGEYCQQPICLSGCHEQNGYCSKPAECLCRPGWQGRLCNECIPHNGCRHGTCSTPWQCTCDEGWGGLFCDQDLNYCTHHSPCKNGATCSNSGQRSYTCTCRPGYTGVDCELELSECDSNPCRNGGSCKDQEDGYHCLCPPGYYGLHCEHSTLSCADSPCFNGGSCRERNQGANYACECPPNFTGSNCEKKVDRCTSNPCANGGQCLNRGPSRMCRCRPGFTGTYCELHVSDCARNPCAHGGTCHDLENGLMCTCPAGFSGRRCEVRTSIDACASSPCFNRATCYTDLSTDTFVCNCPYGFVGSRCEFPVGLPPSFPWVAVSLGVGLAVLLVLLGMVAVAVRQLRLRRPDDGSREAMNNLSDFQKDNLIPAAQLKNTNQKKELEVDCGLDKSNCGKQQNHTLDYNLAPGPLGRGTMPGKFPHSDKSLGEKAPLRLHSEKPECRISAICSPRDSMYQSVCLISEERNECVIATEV
Assay: FACS competition vs Notch1/Fc, HEK293 cells with human DLL4
Procedure: Further experiments were performed on selected antibodies using HEK293 cells that were stably transfected with either human, mouse or cynomolgus monkey DLL4 using retroviral constructs. In these experiments, anti-DLL4 antibodies (final concentration: 10-0.01 μg/ml) diluted in PBS containing 2% FCS were added to DLL4-expressing HEK 293 cells (50000 cells/well diluted in PBS containing 2% FCS) and incubated for 1 h at 4° C. […]
PROPERTY MEASURED: IC50 (µg/mL)
State the answer as a number, implicitly in µg/mL.

Prompt: Reported IC50 for 9G8 IgG2 VH wt/VL C33S (antibody, V domains shown, IgG2) VH: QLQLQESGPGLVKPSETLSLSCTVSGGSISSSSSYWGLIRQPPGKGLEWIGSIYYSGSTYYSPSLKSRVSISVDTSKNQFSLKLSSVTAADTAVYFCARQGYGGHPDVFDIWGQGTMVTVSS VL: SSELTQSPSVSVSPGQTARITCSGDKLGDVYVSWYQQKTGQSPVLVIYEDTKRPSGIPERFSGSNSGNTATLTISGTQVMDEADYYCQAWDSTTAVIFGGGTKLTVL : what is it?
Completion: 0.136

Prompt: # input binder: 9G8 IgG2 VH wt/VL C33R (antibody, V domains shown, IgG2) VH: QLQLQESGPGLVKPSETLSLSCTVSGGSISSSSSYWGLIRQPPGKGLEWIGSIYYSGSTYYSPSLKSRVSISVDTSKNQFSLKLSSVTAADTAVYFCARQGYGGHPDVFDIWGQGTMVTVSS VL: SSELTQSPSVSVSPGQTARITCSGDKLGDVYVRWYQQKTGQSPVLVIYEDTKRPSGIPERFSGSNSGNTATLTISGTQVMDEADYYCQAWDSTTAVIFGGGTKLTVL ; wanted: its IC50
Completion: 0.201

Prompt: IC50 lookup needed for 9G8 IgG2 VH L38W/VL S7P (antibody, V domains shown, IgG2) VH: QLQLQESGPGLVKPSETLSLSCTVSGGSISSSSSYWGWIRQPPGKGLEWIGSIYYSGSTYYSPSLKSRVSISVDTSKNQFSLKLSSVTAADTAVYFCARQGYGGHPDVFDIWGQGTMVTVSS VL: SSELTQPPSVSVSPGQTARITCSGDKLGDVYVCWYQQKTGQSPVLVIYEDTKRPSGIPERFSGSNSGNTATLTISGTQVMDEADYYCQAWDSTTAVIFGGGTKLTVL , thanks.
Completion: 0.155
